Molecular target: T1, cyno LAIR-1-ECD (cynomolgus monkey)
T1 construct: Recombinant, expressed in mammalian cells; also called extracellular region of cyno LAIR-1
T1 chain: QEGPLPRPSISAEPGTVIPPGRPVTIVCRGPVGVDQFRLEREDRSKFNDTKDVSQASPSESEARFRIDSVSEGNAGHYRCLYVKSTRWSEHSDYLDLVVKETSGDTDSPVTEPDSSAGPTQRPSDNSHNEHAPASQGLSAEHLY
Assay: SPR (Biacore); antibody captured by anti-Fc; LAIR-1-ECD injected;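 further: Anti-Fc immobilized on a CM5 chip, LAIR-1-ECD (human or cynomolgus) injected at 3.3-10 nM and 25 °C, kinetics fitted by simultaneous global fit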

binder	kon [M⁻¹ s⁻¹]
anti-LAIR-1 antibody 47H1 (antibody, V domains shown, Monoclonal antibody from immunized mice (hybridoma)) VH: EVQLVETGGGLVQPKGSLKLSCAASGFTFNINAMNWVRQAPGKGLEWVARIRTKNNNYATFYADSVKDRFTISRDDSQSMLYLQMNNLKTDDTAMYYCVRDRAGFFAYWGQGTPVTVSA VL: DIQMTQSPASQSASLGESVTITCLASQTIGTWLGWYRQKPGKSPQLLIYAATSLADGVPSRFSGSGSGTKFSFKISSLQAEDFVIYYCQQLYSTPLTFGSGTKLEIK	180000
anti-LAIR-1 antibody 57D12 (antibody, V domains shown, Monoclonal antibody from immunized mice (hybridoma)) VH: QVQLQQSGAELARPGASVNLSCRASGYSFTSFGISWVKQRTGQGLEWIGEIYPRSDNTFYNEKFKGKATLTADKSSSTAYMELRSLTSEDSAVYFCARHFGSSSFDYWGQGTTLTVSS VL: ENVLTQSPPIMAASLGQKVTMTCSASSSVSSIYFHWYQQKSGTSPKPLIHRASNLASGVPARFSGSGSGTSYSLTISSVEAEDDATYYCQQWSGYPLTFGGGTKLEIK	110000
anti-LAIR-1 antibody 108D10 (antibody, V domains shown, Monoclonal antibody from immunized mice (hybridoma)) VH: EVQLVETGGGLVQPKGSLKLSCAASGFTFNINAMNWVRQAPGKGLEWVARIRTKNNNYATYYADSVKDRFTISRDDSESMLYLQMNNLKTEDTAMYYCVRDRYGGAMAYWGQGTSVTVSS VL: DIQMTQSSSSFSVSLGDRVTITCKASEDIYNRLAWYQQKPGNVPRLLISSATSLETGVPSRFSGSGSGKDYTLSLTSLQSEDVATYYCQQYWTIPYTFGGGTKLEIK	190000

Every entry's value here was drawn from patent US20220041711A1.
